Test protocol: in vitro permeability of a layer of CaCo-2 cells
Format: in vitro ADME, human
Condition parameters: human, Caco-2; test conc 50 μM, assay duration 2 hr; read-out: mean A->B Papp (apparent permeability)
Attribute measured: Papp A→B at 2 hr, 50 μM (×10⁻⁶ cm/s)
Note: unit ×10⁻⁶ cm/s is implicit; provide only the numeric part.

Please review the following examples before continuing.
# Compound, Papp A→B at 2 hr, 50 μM, ×10⁻⁶ cm/s
data = [
    ("CC(=O)CC(c1ccccc1)c1c(O)c2ccccc2oc1=O (stereo not drawn) [Warfarin, reference compound]", 34.7),
    ("CCCCNC(=O)O[C@H]1C=C[C@@]23CCN(C)Cc4ccc(OC)c(c42)O[C@H]3C1 [galantamine n-butylcarbamate]", 20.8),
]

Okay, next one:
Quick one: Papp A→B at 2 hr, 50 μM of CNC(=C[N+](=O)[O-])NCCSCc1ccc(CN(C)C)o1 [Ranitidine, reference compound] ? 1.1
